src = PubChem BioAssay AID1963852

System: 282377-053-R-J1-PDC complex spheroid viability;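 note: spheroids exposed to compounds for seven days; 100% = DMSO vehicle control viability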
Assay: Anticancer human tumor 282377-053-R-J1-PDC patient-derived colon adenocarcinoma cell line growth inhibition [POLQ]
Settings: second compound 0.316 µM; first compound 0.000316 µM; hits give low values
reportedMetric: viability, T/C (%)
Your answer should be a plain number; it is taken to be in %.

Tell me the measured viability, T/C of Cn1ncnc1[C@H]1c2n[nH]c(=O)c3cc(F)cc(c23)N[C@@H]1c1ccc(F)cc1 + COC1C(OC(N)=O)C(O)C(Oc2ccc3c(O)c(NC(=O)c4ccc(O)c(CC=C(C)C)c4)c(=O)oc3c2C)OC1(C)C , please.
97.5

Would you mind telling me what viability, T/C value was observed for Cn1ncnc1[C@H]1c2n[nH]c(=O)c3cc(F)cc(c23)N[C@@H]1c1ccc(F)cc1 + Nc1ccc(C#CCN(C(=O)Cc2ncc(C(F)(F)F)cc2C(F)(F)F)c2ccc(F)cc2)nn1 ?
99

Fill blank: measured viability, T/C of the compound CC[C@@]1(O)C(=O)OCc2c1cc1n(c2=O)Cc2cc3c(CN(C)C)c(O)ccc3nc2-1 + COC1C(OC(N)=O)C(O)C(Oc2ccc3c(O)c(NC(=O)c4ccc(O)c(CC=C(C)C)c4)c(=O)oc3c2C)OC1(C)C is ____.
106

// returns reported viability, T/C for input CC[C@@]1(O)C(=O)OCc2c1cc1n(c2=O)Cc2cc3c(CN(C)C)c(O)ccc3nc2-1 + Nc1ccc(C#CCN(C(=O)Cc2ncc(C(F)(F)F)cc2C(F)(F)F)c2ccc(F)cc2)nn1
97.1

Which viability, T/C is listed for CC[C@@]1(O)C(=O)OCc2c1cc1n(c2=O)Cc2cc3c(CN(C)C)c(O)ccc3nc2-1 + Cc1cccc(N(C)C(=O)C2C(O)CCN2c2nc(C)cc(C(F)(F)F)c2C#N)c1 ?
90.6

Field request: viability, T/C | item: Cn1ncnc1[C@H]1c2n[nH]c(=O)c3cc(F)cc(c23)N[C@@H]1c1ccc(F)cc1 + Cc1cccc(N(C)C(=O)C2C(O)CCN2c2nc(C)cc(C(F)(F)F)c2C#N)c1
95.9
